The measured values listed here are drawn from ChEMBL document CHEMBL4265871.

Experiment: Selectivity index, ratio of […] for toxicity in human A549 cells to MIC50 for antifungal activity against Aspergillus flavus ATCC MYA-3631
Assay type: cell-based
Conditions: read-out: Selectivity Index
ATTRIBUTE_MEASURED: selectivity ratio
Answer using only a numeral; do not append any unit.

>  <MOLECULE>
CCCCC(O)(Cn1cncn1)c1ccc(Cl)cc1Cl (configuration not stated)

>  <selectivity ratio>
8

$$$$
>  <MOLECULE>
CCCCCCC(O)(Cn1cncn1)c1ccc(F)cc1 (configuration not stated)

>  <selectivity ratio>
1

$$$$
>  <MOLECULE>
CCCCCCC(O)(Cn1cncn1)c1ccc(Cl)cc1 (configuration not stated)

>  <selectivity ratio>
1

$$$$
>  <MOLECULE>
CCCCCCC(O)(Cn1cncn1)c1ccc(Cl)cc1Cl (configuration not stated)

>  <selectivity ratio>
5

$$$$
>  <MOLECULE>
CCCCCC(O)(Cn1cncn1)c1ccc(F)cc1 (configuration not stated)

>  <selectivity ratio>
1

$$$$

Please examine the following record next.
Given the molecule CCCCCC(O)(Cn1cncn1)c1ccccc1F (configuration not stated) , what is its reported selectivity ratio?
5

====

Assay: Selectivity index, ratio of EC50 for toxicity in human A549 cells to MIC50 for antifungal activity against ITC and FLC-resistant Candida albicans ATCC 1237
Assay type: cell-based
Settings: read-out: Selectivity Index
Attribute: selectivity ratio
Keep it simple and answer with nothing but the number.

Look over these answered cases.
>  <COMPOUND>
CCCCC(O)(Cn1cncn1)c1ccc(F)cc1F (stereo unspecified)

>  <selectivity ratio>
2

$$$$
>  <COMPOUND>
CCCCCCC(O)(Cn1cncn1)c1ccccc1Cl (stereo unspecified)

>  <selectivity ratio>
32

$$$$
>  <COMPOUND>
CCCCCCCCC(O)(Cn1cncn1)c1ccc(F)cc1F (stereo unspecified)

>  <selectivity ratio>
6

$$$$
>  <COMPOUND>
CCCCCCC(O)(Cn1cncn1)c1ccccc1F (stereo unspecified)

>  <selectivity ratio>
32

$$$$
>  <COMPOUND>
CCCCCC(O)(Cn1cncn1)c1ccccc1Cl (stereo unspecified)

>  <selectivity ratio>
32

$$$$

Tell me the measured selectivity ratio of CCCCCC(O)(Cn1cncn1)c1ccc(F)cc1 (stereo unspecified) , please.
16

====

Assay: Selectivity index, ratio of EC50 for toxicity in human A549 cells to MIC50 for antifungal activity against ITC and FLC-susceptible Candida albicans ATCC MYA-2310
Assay type: cell-based
Conditions: read-out: Selectivity Index
Entries and their measured selectivity ratio follow.
Respond with the number and no other words.

Known selectivity ratio results, listed for orientation:
>  <MOLECULE>
CC[C@@H]([C@H](C)O)n1ncn(-c2ccc(N3CCN(c4ccc(OC[C@@H]5CO[C@@](Cn6cncn6)(c6ccc(F)cc6F)C5)cc4)CC3)cc2)c1=O [POSACONAZOLE]

>  <selectivity ratio>
1

$$$$
>  <MOLECULE>
CCCCC(O)(Cn1cncn1)c1ccc(Cl)cc1Cl (stereo not given) [HEXACONAZOLE]

>  <selectivity ratio>
16

$$$$
>  <MOLECULE>
CCCCCC(O)(Cn1cncn1)c1ccccc1F (stereo not given)

>  <selectivity ratio>
38

$$$$

selectivity ratio lookup needed for CCCCCC(O)(Cn1cncn1)c1ccc(F)cc1 (stereo not given) , thanks.
8

I have this molecule here, CCCCCC(O)(Cn1cncn1)c1ccc(F)cc1F (stereo not given) , and I need its recorded selectivity ratio.
4

====

Test: Selectivity index, ratio of EC50 for toxicity in human BEAS2B cells to MIC50 for antifungal activity against ITC and FLC-susceptible Candida albicans ATCC MYA-2310
Format: cell-based
Details: BEAS-2B cells, read-out: Selectivity Index
ATTRIBUTE_MEASURED: selectivity ratio
Give the figure by itself; no unit, no explanation.

The following compounds have reported results that may help.
>  <COMPOUND>
CCCCCC(O)(Cn1cncn1)c1ccccc1Cl (centres undefined)

>  <NUMERIC_RESULT>
32

$$$$
>  <COMPOUND>
CCCCCCC(O)(Cn1cncn1)c1ccc(F)cc1F (centres undefined)

>  <NUMERIC_RESULT>
8

$$$$
>  <COMPOUND>
CCCCCCCCC(O)(Cn1cncn1)c1ccc(F)cc1F (centres undefined)

>  <NUMERIC_RESULT>
7

$$$$
>  <COMPOUND>
CC[C@@H]([C@H](C)O)n1ncn(-c2ccc(N3CCN(c4ccc(OC[C@@H]5CO[C@@](Cn6cncn6)(c6ccc(F)cc6F)C5)cc4)CC3)cc2)c1=O

>  <NUMERIC_RESULT>
1

$$$$
>  <COMPOUND>
CCCCCCC(O)(Cn1cncn1)c1ccc(Cl)cc1Cl (centres undefined)

>  <NUMERIC_RESULT>
14

$$$$
>  <COMPOUND>
CCCCCC(O)(Cn1cncn1)c1ccc(F)cc1 (centres undefined)

>  <NUMERIC_RESULT>
8

$$$$
>  <COMPOUND>
CCCCCC(O)(Cn1cncn1)c1ccc(F)cc1F (centres undefined)

>  <NUMERIC_RESULT>
4

$$$$
>  <COMPOUND>
CCCCCC(O)(Cn1cncn1)c1ccc(Cl)cc1 (centres undefined)

>  <NUMERIC_RESULT>
2

$$$$

Reported selectivity ratio for CCCCCC(O)(Cn1cncn1)c1ccc(Cl)cc1Cl (centres undefined) : what is it?
16

====

Known MIC50 of a selection of compounds
Tested on: Candida albicans
Assay: Antifungal activity against ITC and FLC-resistant Candida albicans ATCC MYA-90819 incubated for 48 hrs by modified CLSI M27-A3 protocol based method
Type: functional
Settings: ATCC MYA-90819, 48 h
Note: unit µM is implicit; provide only the numeric part.

See these solved cases before continuing.
>  <COMPOUND>
CCCCCCC(O)(Cn1cncn1)c1ccccc1F (stereo not given)

>  <MIC50, µM>
0.82

$$$$
>  <COMPOUND>
CCCCCC(O)(Cn1cncn1)c1ccc(Cl)cc1 (stereo not given)

>  <MIC50, µM>
6.6

$$$$
>  <COMPOUND>
CCCC(O)(Cn1cncn1)c1ccc(Cl)cc1Cl (stereo not given)

>  <MIC50, µM>
13

$$$$

Turning to the following compound.
Given the entry CCC(O)(Cn1cncn1)c1ccc(Cl)cc1Cl (stereo not given) , what MIC50 was observed with Candida albicans?
0.84

====

Assay: Selectivity index, ratio of EC50 for toxicity in human BEAS2B cells to MIC100 for antifungal activity against Candida albicans ATCC 10231
Assay type: cell-based
Conditions: BEAS-2B cells, read-out: Selectivity Index
Reported values of selectivity ratio for individual entries
Kindly provide the number alone.

>  <COMPOUND>
CCCCCCC(O)(Cn1cncn1)c1ccc(F)cc1 (stereo not drawn)

>  <selectivity ratio>
2

$$$$
>  <COMPOUND>
CCCC(O)(Cn1cncn1)c1ccc(Cl)cc1Cl (stereo not drawn)

>  <selectivity ratio>
130

$$$$

Now look at this one.
Entry CCCCCC(O)(Cn1cncn1)c1ccccc1Cl (stereo not drawn) : reported selectivity ratio = ?
4

====

Assay: Selectivity index, ratio of EC50 for toxicity in human A549 cells to MIC50 for antifungal activity against Candida krusei ATCC 6258
ATTRIBUTE_MEASURED: selectivity ratio
Please reply with the value in numeric form only.

>  <MOLECULE>
CCCC(O)(Cn1cncn1)c1ccc(Cl)cc1Cl (stereo not drawn)

>  <selectivity ratio>
522

$$$$
>  <MOLECULE>
CCCCCCC(O)(Cn1cncn1)c1ccc(Cl)cc1 (stereo not drawn)

>  <selectivity ratio>
19

$$$$
>  <MOLECULE>
CCCCCC(O)(Cn1cncn1)c1ccc(Cl)cc1Cl (stereo not drawn)

>  <selectivity ratio>
69

$$$$

Next:
Param item = CCCCCC(O)(Cn1cncn1)c1ccccc1F (stereo not drawn) ; retrieve measured selectivity ratio.
617

====

This listing pairs compounds with measured EC50 at 24 h.
Assay: Toxicity in human A549 cells assessed as reduction in cell viability incubated for 24 hrs by resazurin dye based assay

Solved entries (count: 5):
>  <COMPOUND>
CCCCCC(O)(Cn1cncn1)c1ccc(F)cc1F (stereo unspecified)

>  <RESULT>
> 31.3 µg/mL

$$$$
>  <COMPOUND>
CCCCCC(O)(Cn1cncn1)c1ccc(F)cc1 (stereo unspecified)

>  <RESULT>
> 31.3 µg/mL

$$$$
>  <COMPOUND>
CCCC(O)(Cn1cncn1)c1ccc(Cl)cc1Cl (stereo unspecified)

>  <RESULT>
> 31.3 µg/mL

$$$$
>  <COMPOUND>
CCCCC(O)(Cn1cncn1)c1ccc(Cl)cc1Cl (stereo unspecified)

>  <RESULT>
> 31.3 µg/mL

$$$$
>  <COMPOUND>
OC(Cn1cncn1)(Cn1cncn1)c1ccc(F)cc1F

>  <RESULT>
> 62.5 µg/mL

$$$$

Quick check: EC50 at 24 h of CCCCCCC(O)(Cn1cncn1)c1ccccc1Cl (stereo unspecified) ?
> 31.3 µg/mL

====

Assay: Selectivity index, ratio of EC50 for toxicity in human A549 cells to MIC50 for antifungal activity against Candida albicans ATCC 64124
Format: cell-based
Settings: read-out: Selectivity Index
ATTRIBUTE_MEASURED: selectivity ratio
// keep it numeric: no unit symbol after the value

Use the examples below as a reference point.
>  <MOLECULE>
CCCCCCCCC(O)(Cn1cncn1)c1ccc(F)cc1F (stereo not drawn)

>  <selectivity ratio>
3

$$$$
>  <MOLECULE>
CCCCCC(O)(Cn1cncn1)c1ccccc1F (stereo not drawn)

>  <selectivity ratio>
1

$$$$

API: the following record is the query input.
Which selectivity ratio reading was recorded for the molecule CCCCC(O)(Cn1cncn1)c1ccc(F)cc1F (stereo not drawn) ?
2
